Field IC50: reported value for UniProt P43088; entries drawn from several documents.

Below: 5 compounds and their reported IC50.
Compound: O=C(/C=C/c1cccc2c1N(Cc1ccc3ccccc3c1)C(=O)C2O)NS(=O)(=O)c1ccc(F)cc1 (configuration not stated)
Observed Result: > 20 µM
--
Compound: Cn1cc(/C=C/C(=O)NS(=O)(=O)c2ccc(F)c(F)c2)c2c(Oc3ccc(Cl)cc3F)cccc21
Observed Result: 3.19 µM
--
Compound: Cn1cc(/C=C/C(=O)NS(=O)(=O)c2cc(F)c(F)cc2F)c2c(Oc3ccc(F)c(Cl)c3)cccc21
Observed Result: 3.16 µM
--
Compound: Cn1cc(/C=C/C(=O)NS(=O)(=O)c2cc(F)c(F)cc2F)c2c(Oc3ccc(Cl)c(Cl)c3)cccc21
Observed Result: 4.64 µM
--
Compound: CC12CCCC(/C=C/C(=O)NS(=O)(=O)c3cc(F)c(F)cc3F)=C1N(Cc1cccc(Cl)c1Cl)C(=O)C2 (configuration not stated)
Observed Result: 7.4 µM

Query for UniProt P43088: what IC50 does the record show for CCc1ccccc1N(CC(=O)NCc1ccc(Cl)cc1)S(=O)(=O)c1ccc(C)cc1 ? 4.17 µM

Query the reported IC50 for UniProt P43088; item: CC12CCCC(/C=C/C(=O)NS(=O)(=O)c3cc(F)c(F)cc3F)=C1N(Cc1ccc(F)c(F)c1)C(=O)C2 (configuration not stated) 3.8 µM

---

Several publications report log10 of IC50 on Prostaglandin F2-alpha receptor (Homo sapiens); those values are gathered here.
Sequence (P43088 whole entry): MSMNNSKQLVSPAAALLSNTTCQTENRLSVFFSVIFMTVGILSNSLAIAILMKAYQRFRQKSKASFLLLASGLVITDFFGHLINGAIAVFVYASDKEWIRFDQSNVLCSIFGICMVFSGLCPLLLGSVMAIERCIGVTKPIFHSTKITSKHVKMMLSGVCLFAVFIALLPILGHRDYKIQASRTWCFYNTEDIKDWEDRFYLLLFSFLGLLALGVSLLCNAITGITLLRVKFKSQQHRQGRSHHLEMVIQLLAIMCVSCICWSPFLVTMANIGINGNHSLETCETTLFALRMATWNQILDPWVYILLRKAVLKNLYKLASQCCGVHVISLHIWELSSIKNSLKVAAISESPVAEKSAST
Units before log transform: µM; reported quantity: IC50; transform: log10.

# annotated cases, reported log10 of IC50 shown
Compound: Cn1cc(/C=C/C(=O)NS(=O)(=O)c2cc(F)c(F)cc2F)c2c(Oc3ccc(Cl)cc3Cl)cccc21
Observed Result: 0.55
--
Compound: COc1cccc(CN2C(=O)CC3(C)CCCC(/C=C/C(=O)NS(=O)(=O)c4cc(Cl)c(Cl)s4)=C23)c1 (stereo not drawn)
Observed Result: 0.79
--
Compound: CC12CCCC(/C=C/C(=O)NS(=O)(=O)c3ccc(F)c(F)c3)=C1N(Cc1ccc(F)c(F)c1)C(=O)C2 (stereo not drawn)
Observed Result: 1.21

Recorded log10 of IC50 for Cc1cn(Cc2ccc(Cl)cc2Cl)c2c(-c3cc(NS(=O)(=O)c4ccc(F)c(F)c4)no3)cc(F)cc12 , please? -0.22

For the compound CC12CCCC(/C=C/C(=O)NS(=O)(=O)c3cc(Cl)c(Cl)s3)=C1N(Cc1ccc3ccccc3c1)C(=O)C2 (stereo not drawn) , what log10 of IC50 is on record? 1.01
